test: Human HepG2 cell viability assay in 384 well format; type: toxicity, cell-based; parameters: dose 125 nL, time 70.5 hour; concentration not given beside the values; details: HepG2 cells, read-out: Inhibition
Provide the reported cytotoxicity at 70.5 h of each item.
Report the value in % with no unit label.

Item under review: Cc1c(S(=O)(=O)N2CCCC2c2nnc(-c3ccsc3)o2)cnn1C (configuration not stated) . Reported cytotoxicity at 70.5 h? 0.227

What about COC(=O)C(c1cc(F)ccc1F)N(C)C(=O)c1ccccn1 (configuration not stated) ? -9.53

Same lookup for COCCN1CCCC1Cn1nc(C)cc1C (configuration not stated) , please. 8.46

And N[C@H]1CCCN(C(=O)c2cnc(COc3ccccc3)nc2O)C1 ? -9.44

Let us now turn to Cc1noc(COCC(=O)N2CCCCC2c2nccs2)n1 (configuration not stated) -8.06

Okay, and C[C@H]1CN(C(=O)c2ccc[nH]2)C[C@@]12CCN(c1ccsc1)C2=O ? -5.02

Also need COc1ccc(-c2n[nH]cc2CN(C)CCCN2CCOCC2)c(F)c1 , thanks. -3.86

Try the compound Cc1cnc(N2CCC3(CC2)COCCN(C(C)C)C3)nc1 -8.08

# repeat for Cc1nn(C)c(N(C)C)c1CNCc1cccc(OCCN(C)C)c1 27.3

Also need Cc1cc(CN(C)C(=O)c2ccc(Cl)cc2N2CCCC2=O)no1 , thanks. -12.5

Moving on to the next compound: Cc1csc(C2CCCCN2C(=O)COCc2nc(C)no2)n1 (configuration not stated) -4.26

Next compound: CN1CCC(N2Cc3nc(N)ncc3C2=O)CC1 -11.6

Taken from ChEMBL document CHEMBL3507680.
